Assay: Excretion into bile after venous injection
Format: in vivo
Settings: rabbit, iv, within 6 hours, of amount administered
property-measured: dose excreted at 6 h

molecule: COC(=O)[C@H]1[C@H]2C[C@@H]3c4[nH]c5cc(OC)ccc5c4CCN3C[C@H]2C[C@@H](O)[C@@H]1OC [MR, methylreserpate]
result-value: 0.3 to 0.5%
